Test system: rat skeletal muscle cell line, L6
Experiment: cells
Assay type: cell-based
Settings: Rattus norvegicus; Table 3B; weighted means of two or more independent trials; read-out: IC50 L6
Record form. Attribute: pIC50. Fill in for each entry.
Conceptually, pIC50 converts a concentration in mol/L into minus its log10.

What value of measured pIC50 is listed for O=C1/C(=C/c2ccncc2)Oc2ccccc21 ?
4.09

What value of measured pIC50 is listed for O=C1/C(=C/c2ccc(Br)s2)Oc2ccccc21 ?
4.10

What value of measured pIC50 is listed for O=C1/C(=C/c2cccc3[nH]ccc23)Oc2ccccc21 ?
4.03

What value of measured pIC50 is listed for O=C1/C(=C/c2ccc[nH]2)Oc2ccccc21 ?
4.08

What value of measured pIC50 is listed for O=C1/C(=C/c2ccc(CO)o2)Oc2ccccc21 ?
4.51

What value of measured pIC50 is listed for O=C1/C(=C/c2ccccn2)Oc2ccccc21 ?
4.10

What value of measured pIC50 is listed for Cc1ccc(/C=C2\Oc3ccccc3C2=O)o1 ?
4.07

What value of measured pIC50 is listed for Cc1[nH]cnc1/C=C1\Oc2ccccc2C1=O ?
3.49

What value of measured pIC50 is listed for O=C1/C(=C/c2c[nH]c3ccccc23)Oc2ccccc21 ?
4.19

All figures here come from patent US20200399238A1.
